- experimentalTarget: T1, BSA (bovine serum albumin) (bovine (송아지 혈청 알부민), UniProt P02769 25-607)
- T1 construct: Negative control antigen of the phage ELISA; also called 송아지 혈청 알부민
- T1 sequence (P02769 25-607 limits assumed): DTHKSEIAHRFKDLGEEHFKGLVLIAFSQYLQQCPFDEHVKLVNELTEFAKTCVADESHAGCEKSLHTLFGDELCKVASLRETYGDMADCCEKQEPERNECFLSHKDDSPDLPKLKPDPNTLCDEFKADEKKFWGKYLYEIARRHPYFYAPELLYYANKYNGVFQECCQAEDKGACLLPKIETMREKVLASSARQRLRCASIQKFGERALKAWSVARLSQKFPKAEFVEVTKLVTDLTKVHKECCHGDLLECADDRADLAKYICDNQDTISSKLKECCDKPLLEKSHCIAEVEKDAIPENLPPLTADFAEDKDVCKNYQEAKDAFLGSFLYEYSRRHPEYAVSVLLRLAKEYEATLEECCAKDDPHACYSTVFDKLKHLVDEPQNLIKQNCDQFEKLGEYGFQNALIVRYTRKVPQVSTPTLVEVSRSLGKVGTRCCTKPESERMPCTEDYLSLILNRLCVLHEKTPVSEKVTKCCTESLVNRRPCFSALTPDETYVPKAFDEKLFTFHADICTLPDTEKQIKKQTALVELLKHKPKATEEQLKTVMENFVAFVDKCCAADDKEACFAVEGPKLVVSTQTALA
- runDescription: phage ELISA, 1% BSA coated, anti-M13 peroxidase, OD 492 nm
readoutKind: binding result

SC05-187 (scFv) scFv: EVQLVQSGAEVKKPGESLKISCKGSGYSFTKYWIGWVRQMPGKGLEWMGIIYPGDSDTRYSPSFQGQVTISADKSISTAYLQWSSLKASDTAMYYCARGSGIATGNSFDSWGQGTLVTVSSGTGGSGGTGSGTGGSTQTVVTQEPSLTVSPGGTVTLTCASSTGAVTSGYYPNWFQQKPGQAPRALIYSTSKKHSWTPARFSGSLLGGRAALTLSGAQPEDEADYYCLLSYGGARVFGGGTKLTVL | no binding
SC06-415 (scFv) scFv: EVQLVESGGGLVQPGRSLRLSCAASGFTFDDYAMHWVRQAPGKGLEWVSGISWNSGSIGYADSVKGRFTISRDNAKNSLYLQMNSLRAEDSAVYYCARGGQRFDFWGQGTLVTVSSGTGGSGGTGSGTGGSTQSALTQPPSASGSPGQSVTISCTGTSSDVGGYNYVSWYQQLPGKAPKLLIYDVNNRPSGVSNRFSGSKSGNTASLTISGLQAEDEAEYYCGSSVGSRLRIFGGGTKLTVL | no binding

Entry source: patent KR20140095558A
